# target or system: Hp-FAR-2 (Heligmosomoides polygyrus, UniProt A0A183GLK6)
# Construct: mature protein, residues 18-180 of 180 (signal peptide removed), N-terminal 6-His tag, pET histev N'term, E. coli BL21(DE3), Ni-NTA and SEC; ~17-18 kDa on SDS-PAGE
# Sequence (A0A183GLK6 entry or part of it): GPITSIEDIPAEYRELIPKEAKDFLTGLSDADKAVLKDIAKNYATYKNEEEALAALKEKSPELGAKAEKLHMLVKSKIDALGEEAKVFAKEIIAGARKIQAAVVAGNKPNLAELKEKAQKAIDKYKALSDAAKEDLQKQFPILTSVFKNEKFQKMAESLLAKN
# test details: fluorescence titration, one-site fit
# Type: binding
measured property: Kd (nM)

compound="CN(C)c1cccc2c(S(=O)(=O)NCCCCCCCCCCC(=O)O)cccc12 [DAUDA]" target_or_system="Hp-FAR-2 (Heligmosomoides polygyrus, UniProt A0A183GLK6)" measured_number=2650

----------
# target or system: Hp-FAR-2 (Heligmosomoides polygyrus)
# Construct: mature protein, residues 18-180 of 180 (signal peptide removed), N-terminal 6-His tag, pET histev N'term, E. coli BL21(DE3), Ni-NTA and SEC; ~17-18 kDa on SDS-PAGE
# test details: fluorescence titration of retinol, one-site fit
# Format: binding
pKd: −log10 of the molar value.
measured property: pKd

compound="CC1=C(/C=C/C(C)=C/C=C/C(C)=C/CO)C(C)(C)CCC1 [retinol]" measured_number=5.18
